target: Rap guanine nucleotide exchange factor 3 (Homo sapiens); experiment: Confirmatory qHTS for antagonist of cAMP-regulated guanine nucleotide exchange factor 3 (EPAC1) (AID 1645880); settings: EPAC1 Rap1B-BODIPY-GDP exchange, fluorescence; series mostly up to 115 µM; further: nearly all actives have a fitted effect of over 55% in size
Records with an inconclusive call do not appear. Activity calls are given as the source filed them. The call rests on the fitted dose curve; in most records, active means well fitted inhibition curve with a large enough effect; inconclusive means small, poorly fitted or top-dose-only effect; inactive means no such curve, though single readings can be large or run the other way.
Write down the outcome that applies. Available outcomes: True = active, False = inactive

Previously resolved entries follow.
| Molecule | Tested On | Discrete Label |
| --- | --- | --- |
| CN(C)c1ccc(/C=C/C=C/c2ccnc3ccccc23)cc1 | Rap guanine nucleotide exchange factor 3 (Homo sapiens) | False |
| CN1CCN(C2=C(Cl)C(=O)c3ccccc3C2=O)CC1 | Rap guanine nucleotide exchange factor 3 (Homo sapiens) | True |
| CC1(C(=O)NS(=O)(=O)c2ccc(Cl)s2)CCN1C(=O)c1ccc(C2CCCCC2)cc1 (centres undefined) | Rap guanine nucleotide exchange factor 3 (Homo sapiens) | True |
| COC(=O)c1sc(-c2ccc(C(C)(C)C)cc2)cc1NC(=O)c1ccccc1C(=O)O | Rap guanine nucleotide exchange factor 3 (Homo sapiens) | True |
| O=C(c1ccco1)N(Cc1ccc([N+](=O)[O-])cc1)c1ccc(Br)cc1 | Rap guanine nucleotide exchange factor 3 (Homo sapiens) | False |

q: State the result this test recorded for COc1cccc(CNC(=O)CCC(=O)N2CC(C)Sc3ccccc32)c1 (centres undefined) .
a: False

q: Next entry: CCC(C)NC(=O)Cn1c(=O)n(CCCCCC(=O)Nc2ccccc2)c(=O)c2sccc21 (centres undefined)
a: False

###

Biological target: Cytochrome P450 3A4 (Homo sapiens)
Test: Cytochrome P450 family 3 subfamily A member 4 (CYP3A4) small molecule antagonists: luciferase qHTS assay (AID 1645841); further: nearly all actives have a fitted effect of over 45% in size
Conditions: P450-Glo CYP3A4 enzyme assay, luciferin luminescence; series mostly up to 57.4 µM
Source text: National Center for Advancing Translational Sciences [NCATS] Cytochrome P450 (CYP) enzymes are membrane-bound hemeproteins that play a key role in metabolism of drugs and xenobiotics. Assaying the effect of chemicals on CYP isozymes is useful to minimize the adverse drug reactions and toxicities in drug development process. […] The luciferin products formed are detected with a luciferin detection reagent, and the amount of light produced is proportional to CYP activity. […]
Records with an inconclusive call do not appear. The source made the active and inactive calls. Calls follow the shape of the dose curve; as a rule, active = well fitted inhibition curve with a large enough effect in the repeat runs; inconclusive = weak or mixed curves; inactive = no such curve, though single readings can be large or run the other way.
Write down the outcome that applies. Available outcomes: active, inactive

| Compound | Discrete Label |
| --- | --- |
| CN[C@H](CC(C)C)C(=O)N[C@H]1C(=O)N[C@@H](CC(N)=O)C(=O)N[C@H]2C(=O)N[C@H]3C(=O)N[C@H](C(=O)N[C@H](C(=O)O)c4cc(O)cc(O)c4-c4cc3ccc4O)[C@H](O)c3ccc(c(Cl)c3)Oc3cc2cc(c3O[C@@H]2OC(CO)[C@@H](O)[C@H](O)[C@@H]2O[C@H]2C[C@](C)(N)[C@H](O)[C@H](C)O2)Oc2ccc(cc2Cl)[C@H]1O (stereo partly specified) | inactive |

q: State the result this test recorded for "CC(C)OCc1cc(CN2CCN(c3ccccc3)CC2)c(O)c2ncccc12" .
a: inactive

q: Next entry: "C[S+](=O)([O-])Nc1ccc(-c2ccc3nc(-c4ccc(OC(F)(F)F)cc4)[nH]c3c2)cc1"
a: inactive

q: Next entry: "Cc1nc2c(-c3ccccc3)c(C)[nH]n2c(=O)c1Cc1ccc(Br)cc1"
a: inactive

q: Next entry: "Oc1ccc(C2(c3ccccc3F)CCC(F)(F)CC2)cc1"
a: active

q: Next entry: CCc1ccc(CNC(=O)C2CCCN(c3nnc(C)c4c(C)n(-c5ccccc5)nc34)C2)cc1 (stereo unspecified)
a: active

###

biological target: Rap guanine nucleotide exchange factor 3 (Homo sapiens); test: Confirmatory qHTS for antagonist of cAMP-regulated guanine nucleotide exchange factor 3 (EPAC1) (AID 1645880); conditions: EPAC1 Rap1B-BODIPY-GDP exchange, fluorescence; series mostly up to 115 µM; further: nearly all actives have a fitted effect of over 55% in size
Inconclusive results are not listed. Activity calls are given as the source filed them. Calls follow the shape of the dose curve; as a rule, active = well fitted inhibition curve with a large enough effect; inconclusive = small, poorly fitted or top-dose-only effect; inactive = no such curve, though single readings can be large or run the other way.
Write down the outcome that applies. Available outcomes: True for active, False for inactive

| Molecule | Tested On | Discrete Label |
| --- | --- | --- |
| O=C1C=CC(=O)c2c(O)c(N3CCN(CCOCCO)CC3)c(Br)c(O)c21 | Rap guanine nucleotide exchange factor 3 (Homo sapiens) | True |

q: State the result this test recorded for "CCc1nc2c(OCCOc3ccc(F)cc3)cccn2c1N(C)C(=O)c1ccc(OC)cc1" .
a: False

q: Next entry: "COc1cc(NC(=S)NCCC(c2ccccc2)c2ccccc2)cc(OC)c1"
a: False

q: Next entry: "Cc1csc(SCC(=O)NC23CC4CC(CC(C4)C2)C3)n1"
a: False

q: Next entry: "Cc1cccc(NC(=O)CN2C(=O)S/C(=C\c3ccc(O)c([N+](=O)[O-])c3)C2=O)c1"
a: True

q: Next entry: "COc1ccc(NC(=O)c2c(-c3ccccc3)c(-c3ccccc3)nn(C)c2=O)cc1OC"
a: False

q: Next entry: "CN(C)C(=O)CSc1nc(-c2ccccc2)c(-c2ccccc2)o1"
a: False

q: Next entry: "Cc1c(C(=O)OCC(=O)N2CCCC2=O)oc2ccccc12"
a: False

q: Next entry: "Cc1ccc(S(=O)(=O)N2CCC(C(=O)Nc3ccccc3N3CCCCC3)CC2)cc1C"
a: False

q: Next entry: CC(/C=C1\SC(=S)N(C(C(=O)O)C(C)C)C1=O)=C\c1ccccc1 (stereo not given)
a: True

###

target: Rap guanine nucleotide exchange factor 3 (Homo sapiens) (UniProt O95398); assay: Counterscreen qHTS for antagonist of cAMP-regulated guanine nucleotide exchange factor 3 (EPAC1) (AID 1645888); settings: Rap1B-BODIPY-GDP nucleotide exchange, fluorescence; series mostly up to 154 µM;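 further: fluorescence loss as bound BODIPY-GDP is released from Rap1B; % of control where 0% means no effect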
Sequence (O95398 whole entry, looked up): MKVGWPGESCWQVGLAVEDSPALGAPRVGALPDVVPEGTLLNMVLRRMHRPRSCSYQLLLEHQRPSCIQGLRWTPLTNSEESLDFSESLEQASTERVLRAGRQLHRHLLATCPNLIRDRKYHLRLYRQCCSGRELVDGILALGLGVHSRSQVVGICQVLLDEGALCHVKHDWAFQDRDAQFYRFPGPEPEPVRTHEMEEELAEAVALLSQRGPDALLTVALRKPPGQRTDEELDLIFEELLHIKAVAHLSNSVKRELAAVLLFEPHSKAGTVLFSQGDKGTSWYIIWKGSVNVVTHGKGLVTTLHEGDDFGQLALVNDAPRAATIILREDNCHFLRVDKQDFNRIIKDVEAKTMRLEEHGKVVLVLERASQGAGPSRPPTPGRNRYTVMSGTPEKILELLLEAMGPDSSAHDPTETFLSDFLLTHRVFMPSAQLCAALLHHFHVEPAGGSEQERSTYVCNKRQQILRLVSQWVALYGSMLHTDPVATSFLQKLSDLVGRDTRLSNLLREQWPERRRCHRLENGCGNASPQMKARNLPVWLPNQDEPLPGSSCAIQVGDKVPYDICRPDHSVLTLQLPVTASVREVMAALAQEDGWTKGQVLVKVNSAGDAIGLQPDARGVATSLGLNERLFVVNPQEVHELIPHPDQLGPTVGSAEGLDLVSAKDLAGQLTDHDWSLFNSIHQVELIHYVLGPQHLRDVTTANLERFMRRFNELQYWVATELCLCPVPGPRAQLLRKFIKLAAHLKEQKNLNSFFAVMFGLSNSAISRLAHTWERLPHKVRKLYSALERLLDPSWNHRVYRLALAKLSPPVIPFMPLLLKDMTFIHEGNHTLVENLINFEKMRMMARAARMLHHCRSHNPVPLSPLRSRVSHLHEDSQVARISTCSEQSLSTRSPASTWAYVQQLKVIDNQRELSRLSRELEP
Results filed as inconclusive are left out. Activity calls are given as the source filed them. Calls come from the whole dose curve; as a rule, active = well fitted inhibition curve with a large enough effect; inconclusive = small, poorly fitted or top-dose-only effect; inactive = no such curve, though single readings can be large or run the other way.
Observed Property: activity change, negative = inhibition

| Molecule | Tested On | Result |
| --- | --- | --- |
| Cc1ccc(-c2csc(NC(=O)c3ccc(Br)cc3)c2C(=O)O)cc1 | Rap guanine nucleotide exchange factor 3 (Homo sapiens) (UniProt O95398) | inactive |
| Cc1ccc(C(=O)NCCCNC(=O)c2ccco2)cn1 | Rap guanine nucleotide exchange factor 3 (Homo sapiens) (UniProt O95398) | inactive |
| CCC(=O)Nc1ccc(C(=O)NNC(=O)c2ccc([N+](=O)[O-])cc2)cc1 | Rap guanine nucleotide exchange factor 3 (Homo sapiens) (UniProt O95398) | inactive |
| O=C(NS(=O)(=O)c1ccc2ccc(S(=O)(=O)NCCSc3ccccc3)cc2c1)c1cccc2ccccc12 | Rap guanine nucleotide exchange factor 3 (Homo sapiens) (UniProt O95398) | inactive |
| CCN(CC)c1ccc2cc(-c3nnc(-c4ccccc4)o3)c(=O)oc2c1 | Rap guanine nucleotide exchange factor 3 (Homo sapiens) (UniProt O95398) | inactive |

q: What does the record list as activity change, negative = inhibition for "CCOC(=O)c1sc(N=NC2=C(O)CCCC2=O)c(C(=O)OCC)c1C" ?
a: -17% [at 30.8 µM] (inactive)

q: Next entry: "O=C(Nc1ccc2nc(-c3ccc4nc[nH]c4c3)[nH]c2c1)c1cccs1"
a: 8.72% [at 30.8 µM] (inactive)

q: Next entry: "N#Cc1cc2c(=O)n3ccccc3nc2n(-c2nnc(SCc3ccccc3Cl)s2)c1=O"
a: inactive

q: Next entry: "CCOC(=O)c1c(/N=C/C2=C(O)CC(C)(C)CC2=O)sc(C)c1C"
a: -9.9% [at 30.8 µM] (inactive)

###

assay: S16 Schwann cell PMP22 intronic element firefly luciferase assay (AID 624032); conditions: S16 rat Schwann cells, PMP22 element FLuc, 24 h; series mostly up to 25.7 µM; further: nearly all actives have a fitted effect of over 30% in size
Inconclusive results are not listed. Calls of active or inactive are those of the source. Calls come from the whole dose curve; as a rule, active = well fitted inhibition curve with a large enough effect; inconclusive = small, poorly fitted or top-dose-only effect; inactive = no such curve, though single readings can be large or run the other way.
Write down the outcome that applies. Available outcomes: active, inactive

| Compound | Discrete Label |
| --- | --- |
| CC=C(/C(=C/C)c1ccc(O)cc1)c1ccc(O)cc1 | inactive |
| CCC(C)C(=O)OC1CCC=C2C=CC(C)C(CCC3CC(O)CC(=O)O3)[C@@H]21 (stereo partly specified) | inactive |
| NC(CCC(=O)N[C@@H](CS)C(=O)NCC(=O)O)C(=O)O (stereo partly specified) | inactive |

q: State the result this test recorded for C[C@@H]1Cc2ccccc2N1NC(=O)c1ccc(Cl)c(S(N)=O)c1 (stereo partly specified) .
a: active

q: Next entry: "CS(=O)(=O)c1ccc([C@H](O)[C@H](CF)NC(=O)C(Cl)Cl)cc1"
a: inactive

q: Next entry: "CC(=C(CCOP(=O)(O)O)SC(=O)c1ccccc1)N(C=O)Cc1cnc(C)nc1N"
a: inactive

q: Next entry: "CN1CC(=O)N=C1N"
a: inactive

q: Next entry: CN(C)CCCOC1C(C(O)CO)OC2OC(C)(C)O[C@@H]21 (stereo partly specified)
a: inactive

###

Test system: 3D7
Test: qHTS profiling for inhibitors of Plasmodium falciparum proliferation (AID 504749); further: nearly all actives have a fitted effect of over 60% in size
Conditions: P. falciparum in erythrocytes, SYBR Green DNA, 72 h; series mostly up to 12.8 µM
Protocol: NIH National Institute of Allergy and Infectious Diseases [NIAID] NIH Chemical Genomics Center [NCGC] […] Because mature erythrocytes lack DNA, only Plasmodium-derived DNA is detected. NCGC Assay Protocol Summary: The SYBR Green viability assay was adapted from a method described previously (Plouffe et al., 2008). […] The following morning, fluorescence intensity at 485(14) nm excitation and 535(25) nm emission wavelengths was measured on an EnVision (Perkin Elmer) plate reader. […]
Records with an inconclusive call do not appear. Active and inactive are the calls of the source. Calls follow the shape of the dose curve; as a rule, active = well fitted inhibition curve with a large enough effect; inconclusive = small, poorly fitted or top-dose-only effect; inactive = flat fitted curve, though single readings scatter.
Write down the outcome that applies. Available outcomes: active, inactive

| Compound | Discrete Label |
| --- | --- |
| CC[C@@H]1OC(=O)[C@H](C)[C@H](O[C@@H]2C[C@](C)(OC)[C@H](O)[C@H](C)O2)[C@H](C)[C@H](O[C@@H]2O[C@@H](C)C[C@@H](N(C)C)[C@@H]2O)[C@](C)(O)C[C@H](C)C(=NOCOCCOC)[C@H](C)[C@H](O)[C@]1(C)O | inactive |
| C=CC1=C(C(=O)O)N2C(=O)[C@@H](NC(=O)/C(=N\OCC(=O)O)c3csc(N)n3)[C@@H]2SC1 | inactive |

q: State the result this test recorded for CC(=O)OC1CCC2C3CCc4cc(O)ccc4C3CCC12C (stereo unspecified) .
a: inactive

q: Next entry: CC1(C)OC2CO[C@]3(COS(N)(=O)=O)OC(C)(C)OC3C2O1 (stereo partly specified)
a: inactive

q: Next entry: "C[C@@]12CC[C@H]3[C@@H](CCC4=CC(=O)CC[C@]43C)[C@H]1CC[C@H]2C(=O)CO"
a: inactive

q: Next entry: "CCOC(=O)O[C@]1(C(=O)COC(=O)CC)CC[C@@H]2[C@@H]3CCC4=CC(=O)C=C[C@@]4(C)[C@H]3[C@H](O)C[C@]21C"
a: inactive

q: Next entry: C=Cc1c(C)c2cc3nc(cc4[nH]c(cc5nc(cc1[nH]2)C(C)=C5CCC(=O)O)c(CCC(=O)OC)c4C)[C@@]1(C)C3=CC=C(C(=O)OC)[C@H]1C(=O)OC (tested in a mixture with another compound)
a: active

q: Next entry: "C[C@H](Oc1ccccc1)C(=O)N[C@@H]1C(=O)N2[C@@H]1SC(C)(C)[C@@H]2C(=O)O"
a: inactive
